Origin of values: PubChem BioAssay

Reported z-score is given for each of the following molecules.
- experimental-details: E. coli acrAB mutant growth effects, primary screen, E. coli filamentation inducers, strain DRC39, OD650, 48 h (AID 1179);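 further: screen aims at cell division blockers that make cells filament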
- condition-context: E. coli DRC39 delta-acrAB growth, higher = more signal, called active from +8 up or from −8 down
Format: numeric value only, no unit, no commentary.

Example results:
CCCCO[C@H]1C[C@H]2C(Br)=C[C@@]1(CO)C(=O)[C@]21CO1; 1.48
CCCC=C(CCC)[C@@H](NS(=O)(=O)c1ccc(-c2ccccc2)cc1)c1ccc(C(=O)OC)cc1; -0.299
C=C(COC)/C(=C/C[C@@H](OC(C)=O)c1cccc(OCCO)c1)c1cc(C(=O)OC)ccc1OC; 1.47

Now take the following molecule into account.
Ask: Please list z-score recorded for the molecule CCN1C(C)=C(C(=O)OC)[C@@H](c2ccccc2)N2C(=O)[C@@]3(C(=O)OC)O[C@@]12[C@@H]1C(=O)N(C)C(=O)[C@@H]13
Reply: -0.992
